Where do these numbers come from? They come from patent EP1581471B9.

Exercise: for every item that follows, state its recorded ED50 (ug/ml) SW620.
system: SW620; assay: three day MTT cytotoxicity assay; format: cell-based, human; details: SW620 (colon), 72 hours

These recorded examples may help you get a feel for the data.
COc1ccc(C2=C(c3cc(OC)c(OC)c(OC)c3)C(=O)C(O)C2)cc1F (stereo not shown)    <1 µg/mL
COc1ccc(C2=C(c3cc(OC)c(OC)c(OC)c3)C(=O)C(O[Si](C)(C)C(C)(C)C)C2)cc1OC(C)C (stereo not shown)    9 ± 1.5 µg/mL
COc1ccc(C2=C(c3cc(OC)c(OC)c(OC)c3)/C(=N\O)C(O)C2)cc1F (stereo not shown)    <1 µg/mL

Let us move to another entry and its ED50 (ug/ml) SW620.
Prompt: Please indicate ED50 (ug/ml) SW620 recorded for COc1ccc(C2=C(c3cc(OC)c(OC)c(OC)c3)C(=O)CC2O)cc1O (stereo not shown)
Response: <1 µg/mL

###

test system: MOLT-4; experiment: three day MTT cytotoxicity assay; assay type: cell-based, human; settings: MOLT-4 (leukemia), 72 hours
measured_metric: ED50 (ug/ml) MOLT4 (µg/mL)
Numbers only, in µg/mL.

Record excerpt, results attached:
COc1ccc(C2=C(c3cc(OC)c(OC)c(OC)c3)C(=O)C(O[Si](C)(C)C(C)(C)C)C2)cc1OC(C)C (stereo not drawn) [Compound 56]    22.5
COc1ccc(C2=C(c3cc(OC)c(OC)c(OC)c3)C(=O)CC2O)cc1O (stereo not drawn) [Compound 39]    62.5

Prompt: Answer with the recorded ED50 (ug/ml) MOLT4 of COc1ccc(C2=C(c3cc(OC)c(OC)c(OC)c3)C(=O)C(O[Si](C)(C)C(C)(C)C)C2)cc1 (stereo not drawn) [Compound 52] only.
Response: 3.0

###

system: DU145; experiment: three day MTT cytotoxicity assay; type: cell-based, human; settings: DU145 (prostate), 72 hours
Threshold check on ED50 (ug/ml) DU145: strictly below 30 µg/mL is true; on or above 30 µg/mL is false.

COc1ccc(C2=C(c3cc(OC)c(OC)c(OC)c3)C(=O)C(O)C2)cc1F (stereo not drawn) [Compound 64]    true
COc1ccc(C2=C(c3cc(OC)c(OC)c(OC)c3)C(=O)CC2O)cc1O (stereo not drawn) [Compound 39]    true
COc1ccc(C2=C(c3cc(OC)c(OC)c(OC)c3)C(=O)C(O)C2)cc1Cl (stereo not drawn) [Compound 67]    false
COc1ccc(C2=C(c3cc(OC)c(OC)c(OC)c3)C(=NO)C(O)C2)cc1 (stereo not drawn) [Compound 49]    false
COc1cc(C2=C(c3ccc(SC)cc3)CC(O[Si](C)(C)C(C)(C)C)C2=O)cc(OC)c1OC (stereo not drawn) [Compound 55]    false
COc1ccc(C2=C(c3cc(OC)c(OC)c(OC)c3)C(=O)C(O[Si](C)(C)C(C)(C)C)C2)cc1 (stereo not drawn) [Compound 52]    true
COc1ccc(C2=C(c3cc(OC)c(OC)c(OC)c3)C(=O)C(O)C2)cc1 (stereo not drawn) [Compound 48]    false
COc1ccc(C2=C(c3cc(OC)c(OC)c(OC)c3)/C(=N\O)C(O)C2)cc1F (stereo not drawn) [Compound 66]    true

As a next step, examine the compound that follows.
Prompt: State whether 30 µg/mL exceeds ED50 (ug/ml) DU145 recorded for COc1ccc(C2=C(c3cc(OC)c(OC)c(OC)c3)C(=O)C(O[Si](C)(C)C(C)(C)C)C2)cc1OC(C)C (stereo not drawn) [Compound 56] .
Response: true
